Sourced from patent US5159081A

Tgt: peripheral opioid receptors (Mus musculus, UniProt P42866)
Sequence (P42866 whole entry): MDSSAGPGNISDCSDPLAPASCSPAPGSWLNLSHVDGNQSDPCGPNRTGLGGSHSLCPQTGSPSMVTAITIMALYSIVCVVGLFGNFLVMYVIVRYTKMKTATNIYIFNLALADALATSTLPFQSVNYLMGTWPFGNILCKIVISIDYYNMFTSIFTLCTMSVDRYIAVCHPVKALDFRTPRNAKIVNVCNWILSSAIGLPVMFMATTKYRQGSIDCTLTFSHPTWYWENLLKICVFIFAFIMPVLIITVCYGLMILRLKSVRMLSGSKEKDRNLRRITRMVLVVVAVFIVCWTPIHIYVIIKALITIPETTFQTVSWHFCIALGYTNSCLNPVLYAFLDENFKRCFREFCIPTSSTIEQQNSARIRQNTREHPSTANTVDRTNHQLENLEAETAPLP
Experiment: mouse diarrhea test: precipitated diarrhea in morphine-maintained mice (peripheral opioid activity)
Type: in vivo
Particulars: 0.5 h; mouse diarrhea test; morphine-maintained mice; subcutaneous or oral; 30 min observation; read-out: ED50
Measured endpoint: ED50 (mg/kg)
Answers are plain numbers, in mg/kg.

{"Molecule": "CC(C)COC(=O)CCCC(=O)N[C@@H](CC1CCCCC1)CN1CC[C@](C)(c2cccc(O)c2)[C@H](C)C1", "Tgt": "peripheral opioid receptors (Mus musculus, UniProt P42866)", "Output unit": "mg/kg", "Reading": 0.05}
{"Molecule": "C[C@H]1CN(CCN(C(=O)CCC(=O)O)C2CCCC2)CC[C@@]1(C)c1cccc(O)c1 (relative stereo) [Example 24, hemihydrate]", "Tgt": "peripheral opioid receptors (Mus musculus, UniProt P42866)", "Output unit": "mg/kg", "Reading": 0.62}

Could you tell me ED50 for each of these molecules? They are listed below.
1. CC(C)COC(=O)CCCC(=O)N[C@H](CC1CCCCC1)CN1CC[C@](C)(c2cccc(O)c2)[C@H](C)C1
2. COC1CCC(OC(=O)CCCC(=O)N[C@@H](CC2CCCCC2)CN2CC[C@@](C)(c3cccc(O)c3)[C@@H](C)C2)CC1 (stereo partly drawn)
3. CC(C)COC(=O)CCCC(=O)N[C@@H](CC1CCCCC1)CN1CC[C@@](C)(c2cccc(O)c2)[C@@H](C)C1
4. C[C@H]1CN(CCN(C(=O)CCC(=O)O)c2ccccc2)CC[C@@]1(C)c1cccc(O)c1 (relative stereo) [Example 19, monohydrate]

1: 0.17; 2: 0.29; 3: 0.002; 4: 0.082
